Test system: Bilophila wadsworthia
Test: Antimicrobial activity against Bilophila wadsworthia by Wadsworth agar dilution method in presence of 1% pyruvic acid
Assay type: functional

compound	target or test system	unit symbol	MIC50
CC(=O)Oc1ccccc1C(=O)Nc1ncc([N+](=O)[O-])s1 [NITAZOXANIDE]	Bilophila wadsworthia	µg/mL	4
CN[C@H](CC(C)C)C(=O)N[C@H]1C(=O)N[C@@H](CC(N)=O)C(=O)N[C@H]2C(=O)N[C@H]3C(=O)N[C@H](C(=O)N[C@H](C(=O)O)c4cc(O)cc(O)c4-c4cc3ccc4O)[C@H](O)c3ccc(c(Cl)c3)Oc3cc2cc(c3O[C@@H]2O[C@H](CO)[C@@H](O)[C@H](O)[C@H]2O[C@H]2C[C@](C)(N)[C@H](O)[C@H](C)O2)Oc2ccc(cc2Cl)[C@H]1O	Bilophila wadsworthia	µg/mL	64
CO[C@H]1/C=C/O[C@@]2(C)Oc3c(C)c(O)c4c(O)c(c5c(nc6cc(C)ccn65)c4c3C2=O)NC(=O)/C(C)=C\C=C\[C@H](C)[C@H](O)[C@@H](C)[C@@H](O)[C@@H](C)[C@H](OC(C)=O)[C@@H]1C	Bilophila wadsworthia	µg/mL	0.25

====

Test system: Clostridium subterminale
Assay: Antimicrobial activity against Clostridium subterminale by Wadsworth agar dilution method
Format: functional
# Lookup of reported MIC50 keyed by entry

molecule	MIC50
CN[C@H](CC(C)C)C(=O)N[C@H]1C(=O)N[C@@H](CC(N)=O)C(=O)N[C@H]2C(=O)N[C@H]3C(=O)N[C@H](C(=O)N[C@H](C(=O)O)c4cc(O)cc(O)c4-c4cc3ccc4O)[C@H](O)c3ccc(c(Cl)c3)Oc3cc2cc(c3O[C@@H]2O[C@H](CO)[C@@H](O)[C@H](O)[C@H]2O[C@H]2C[C@](C)(N)[C@H](O)[C@H](C)O2)Oc2ccc(cc2Cl)[C@H]1O	1 µg/mL
NC[C@@H]1O[C@H](O[C@H]2[C@@H](O)[C@H](O[C@@H]3[C@@H](O)[C@H](N)C[C@H](N)[C@H]3O[C@H]3O[C@H](CN)[C@@H](O)[C@H](O)[C@H]3N)O[C@@H]2CO)[C@H](N)[C@@H](O)[C@@H]1O	256 µg/mL
CO[C@H]1/C=C/O[C@@]2(C)Oc3c(C)c(O)c4c(O)c(c5c(nc6cc(C)ccn65)c4c3C2=O)NC(=O)/C(C)=C\C=C\[C@H](C)[C@H](O)[C@@H](C)[C@@H](O)[C@@H](C)[C@H](OC(C)=O)[C@@H]1C	0.25 µg/mL
CC(=O)Oc1ccccc1C(=O)Nc1ncc([N+](=O)[O-])s1 [NITAZOXANIDE]	0.5 µg/mL

====

Test system: Clostridium fallax
Experiment: Antimicrobial activity against Clostridium fallax by Wadsworth agar dilution method
Assay type: functional

compound	unit symbol	MIC90
CC(=O)Oc1ccccc1C(=O)Nc1ncc([N+](=O)[O-])s1 [NITAZOXANIDE]	µg/mL	4
NC[C@@H]1O[C@H](O[C@H]2[C@@H](O)[C@H](O[C@@H]3[C@@H](O)[C@H](N)C[C@H](N)[C@H]3O[C@H]3O[C@H](CN)[C@@H](O)[C@H](O)[C@H]3N)O[C@@H]2CO)[C@H](N)[C@@H](O)[C@@H]1O	µg/mL	1020
CN[C@H](CC(C)C)C(=O)N[C@H]1C(=O)N[C@@H](CC(N)=O)C(=O)N[C@H]2C(=O)N[C@H]3C(=O)N[C@H](C(=O)N[C@H](C(=O)O)c4cc(O)cc(O)c4-c4cc3ccc4O)[C@H](O)c3ccc(c(Cl)c3)Oc3cc2cc(c3O[C@@H]2O[C@H](CO)[C@@H](O)[C@H](O)[C@H]2O[C@H]2C[C@](C)(N)[C@H](O)[C@H](C)O2)Oc2ccc(cc2Cl)[C@H]1O	µg/mL	4
